# MEASUREMENT TARGET: Recombinant ROCK1 (amino acids 1-477) (Homo sapiens, UniProt Q13464)
# Construct: Recombinant ROCK1 (amino acids 1-477); by word order, ROCK1 from Carna Biosciences
# Sequence (Q13464 1-477): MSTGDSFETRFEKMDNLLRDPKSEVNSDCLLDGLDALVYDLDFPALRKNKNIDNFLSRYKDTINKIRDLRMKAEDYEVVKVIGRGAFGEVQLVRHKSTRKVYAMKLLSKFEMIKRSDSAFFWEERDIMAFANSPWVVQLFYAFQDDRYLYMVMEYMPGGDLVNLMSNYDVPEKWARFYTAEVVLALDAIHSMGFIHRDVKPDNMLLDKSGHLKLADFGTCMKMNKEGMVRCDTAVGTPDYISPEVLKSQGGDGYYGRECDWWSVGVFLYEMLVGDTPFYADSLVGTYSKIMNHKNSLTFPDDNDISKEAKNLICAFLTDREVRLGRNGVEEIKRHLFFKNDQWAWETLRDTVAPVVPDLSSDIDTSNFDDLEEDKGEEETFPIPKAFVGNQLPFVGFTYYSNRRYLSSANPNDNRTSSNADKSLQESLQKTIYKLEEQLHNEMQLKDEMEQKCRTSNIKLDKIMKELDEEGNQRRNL
# EXPERIMENT NOTES: ROCK inhibition assay, LANCE Ultra TR-FRET kinase assay (ROCK1)
# CONDITION INFO: 1 μM ATP, 50 nM ULight-CREBtide substrate
ENDPOINT NAME: IC50

{"MOLECULE": "Cc1nocc1-c1ccc2c(=O)n(Cc3cccc(C(=O)NC4CCN(CC(F)F)CC4)c3)ccc2c1", "IC50": "11 to 100 nM"}
{"MOLECULE": "Cc1nocc1-c1ccc2c(=O)n(Cc3cc(F)cc(C(=O)NCCN4CCN(C)CC4)c3)ccc2c1", "IC50": "11 to 100 nM"}
{"MOLECULE": "[2H]C([2H])([2H])NC(=O)c1cccc(Cn2cnc3cc(-c4cn[nH]c4Br)ccc3c2=O)c1", "IC50": "11 to 100 nM"}

For the molecule COc1cccc(Cn2ccc3cc(-c4conc4C)ccc3c2=O)c1 , the measured IC50 on Recombinant ROCK1 (amino acids 1-477) (Homo sapiens, UniProt Q13464) was 11 to 100 nM

For the molecule O=C(NCc1ccncc1)c1cccc(Cn2cnc3cc(-c4cn[nH]c4C(F)(F)F)ccc3c2=O)c1 , the measured IC50 on Recombinant ROCK1 (amino acids 1-477) (Homo sapiens, UniProt Q13464) was < 10 nM

For the molecule CNC(=O)c1cccc(Cn2ccc3cc(-c4conc4C)ncc3c2=O)c1 , the measured IC50 on Recombinant ROCK1 (amino acids 1-477) (Homo sapiens, UniProt Q13464) was 101 to 500 nM

For the molecule CNC(=O)c1cccc(C(C)n2ccc3cc(-c4cn[nH]c4C(F)F)ccc3c2=O)c1 (centres unmarked) , the measured IC50 on Recombinant ROCK1 (amino acids 1-477) (Homo sapiens, UniProt Q13464) was 11 to 100 nM

For the molecule C[C@H](c1cccc(C(=O)NC2COC2)c1)n1cnc2cc(-c3cn[nH]c3Br)ccc2c1=O , the measured IC50 on Recombinant ROCK1 (amino acids 1-477) (Homo sapiens, UniProt Q13464) was 11 to 100 nM
